conditions: 293.15 K; 100 kPa; Liquid; Vibrating tube method
endpoint_label: mass density (kg/m3)

compound	mass density [kg/m3]
CC(C)OC(C)C [diisopropyl ether]	723.51
CCCOCCC [dipropyl ether]	747.63
CCCCCOCCCCC [dipentyl ether]	782.96
CC(C)CCOCCC(C)C [di-(3-methylbutyl) ether]	774.66
CCOC(C)(C)C [2-ethoxy-2-methylpropane]	741.05
COC(C)(C)C [2-methoxy-2-methylpropane]	740.59
CCCCOCC [butyl ethyl ether]	750.02
CCCCOC [butyl methyl ether]	745.85

----------
conditions: 283.15 K; 25000 kPa; Liquid; Vibrating tube method
endpoint_label: mass density (kg/m3)

CCOC(C)(C)C 774.54
CCCCOC 777.86
CC(C)CCOCCC(C)C 801.22
CC(C)OC(C)C 758.89
CCCCOCC 781.05
CCCOCCC 779.52
CCCCCOCCCCC 808.38
COC(C)(C)C 774.48
